# ASSAYED SYSTEM: Cholinesterase (Homo sapiens, UniProt P06276)
# Sequence (P06276 29-602 limits assumed): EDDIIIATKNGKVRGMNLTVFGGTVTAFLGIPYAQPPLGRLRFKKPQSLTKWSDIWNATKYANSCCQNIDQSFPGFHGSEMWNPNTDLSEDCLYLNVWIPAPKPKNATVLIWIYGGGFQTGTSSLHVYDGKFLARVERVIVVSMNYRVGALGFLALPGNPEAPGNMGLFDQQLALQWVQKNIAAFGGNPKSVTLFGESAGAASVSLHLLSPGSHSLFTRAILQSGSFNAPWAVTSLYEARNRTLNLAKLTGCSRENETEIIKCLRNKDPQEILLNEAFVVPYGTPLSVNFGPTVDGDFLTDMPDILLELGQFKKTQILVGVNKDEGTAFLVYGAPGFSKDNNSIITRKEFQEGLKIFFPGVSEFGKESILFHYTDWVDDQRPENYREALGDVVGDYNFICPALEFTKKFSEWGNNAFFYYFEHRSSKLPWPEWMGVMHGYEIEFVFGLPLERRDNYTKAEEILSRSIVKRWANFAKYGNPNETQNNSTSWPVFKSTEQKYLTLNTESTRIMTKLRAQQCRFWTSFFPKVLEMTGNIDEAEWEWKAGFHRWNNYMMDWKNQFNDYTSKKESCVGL
# ASSAY TEXT: Inhibition of human BChE D70G mutant usual-atypical heterozygous variant using propionylthiocholine as substrate assessed as inhibition rate constant incubated up to 30 mins prior to substrate addition by Ellman's method
MEASURED PARAMETER: bimolecular inhibition rate constant (ki) (×10³ /M/min)
Could you give me the number in ×10³ /M/min? Just the number is fine.

Some compounds with recorded bimolecular inhibition rate constant (ki):
CC(C)NC[C@H](O)c1cc(OC(=O)N(C)C)cc(OC(=O)N(C)C)c1.Cl	2200
CC(C)NCC(O)c1ccc(OC(=O)N(C)C)c(OC(=O)N(C)C)c1.Cl (racemic)	160
CC(C)NCC(O)c1cc(OC(=O)N(C)C)cc(OC(=O)N(C)C)c1.Cl (racemic)	1400

// moving on: another record for bimolecular inhibition rate constant (ki)
Form field - read-out: bimolecular inhibition rate constant (ki); system: Cholinesterase (Homo sapiens, UniProt P06276); submitted item: CC(C)NC[C@H](O)c1ccc(OC(=O)N(C)C)c(OC(=O)N(C)C)c1.Cl
210
